target: Urease (Canavalia ensiformis); test: Inhibition of jack bean urease assessed as reduction in ammonia production using urea as substrate incubated for 15 mins by indophenol method
Sequence (P07374 whole entry): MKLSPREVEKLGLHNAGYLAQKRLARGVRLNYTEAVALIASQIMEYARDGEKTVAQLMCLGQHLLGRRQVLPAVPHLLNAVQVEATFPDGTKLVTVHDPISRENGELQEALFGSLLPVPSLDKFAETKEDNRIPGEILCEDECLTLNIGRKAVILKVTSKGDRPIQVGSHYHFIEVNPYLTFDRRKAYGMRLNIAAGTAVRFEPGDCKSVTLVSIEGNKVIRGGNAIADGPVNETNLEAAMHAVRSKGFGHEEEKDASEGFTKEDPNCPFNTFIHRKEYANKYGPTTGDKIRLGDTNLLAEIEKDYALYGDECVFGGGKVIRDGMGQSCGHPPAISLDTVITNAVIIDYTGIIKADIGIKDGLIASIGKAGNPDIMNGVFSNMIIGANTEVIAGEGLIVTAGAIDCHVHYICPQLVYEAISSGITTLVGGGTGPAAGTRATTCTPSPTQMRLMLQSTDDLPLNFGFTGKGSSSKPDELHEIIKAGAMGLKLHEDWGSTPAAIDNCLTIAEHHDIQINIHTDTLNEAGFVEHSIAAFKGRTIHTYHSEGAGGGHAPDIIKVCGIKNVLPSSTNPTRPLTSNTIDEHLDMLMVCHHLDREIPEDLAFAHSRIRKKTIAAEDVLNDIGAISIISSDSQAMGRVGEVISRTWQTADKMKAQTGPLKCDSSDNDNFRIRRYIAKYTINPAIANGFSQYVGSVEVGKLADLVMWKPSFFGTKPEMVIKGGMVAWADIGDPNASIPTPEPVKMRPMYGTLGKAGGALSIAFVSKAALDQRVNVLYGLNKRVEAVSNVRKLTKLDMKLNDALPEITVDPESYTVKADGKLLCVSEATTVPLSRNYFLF
readout: log10 of IC50 (log10 of the value in µM)
The common logarithm of IC50 in µM is what is listed.

If you can, please state the reported log10 of IC50 value of CCCCCCCCn1c2ccc(C(C)=O)cc2c2cc(C(=O)/C=C/c3ccco3)ccc21 .
1.39

If you can, please state the reported log10 of IC50 value of CCCCCCCCn1c2ccc(C(C)=O)cc2c2cc(C(=O)/C=C/c3cc(OC)c(OC)c(OC)c3)ccc21 .
2.18

If you can, please state the reported log10 of IC50 value of CCCCCCCCn1c2ccc(C(C)=O)cc2c2cc(C(=O)/C=C/c3ccc(N(C)C)cc3)ccc21 .
2.17

If you can, please state the reported log10 of IC50 value of CCCCCCCCn1c2ccc(C(C)=O)cc2c2cc(C(=O)/C=C/c3ccccc3Br)ccc21 .
0.95

If you can, please state the reported log10 of IC50 value of CCCCCCCCn1c2ccc(C(C)=O)cc2c2cc(C(=O)/C=C/c3cccc([N+](=O)[O-])c3)ccc21 .
1.15

If you can, please state the reported log10 of IC50 value of CCCCCCCCn1c2ccc(C(C)=O)cc2c2cc(C(=O)/C=C/c3ccc(Cl)cc3)ccc21 .
1.39

If you can, please state the reported log10 of IC50 value of CCCCCCCCn1c2ccc(C(C)=O)cc2c2cc(C(=O)/C=C/c3ccc(OC)cc3)ccc21 .
0.84

* * *

biological target: Urease (Canavalia ensiformis) (UniProt P07374); assay: Inhibition of jack bean urease assessed as reduction in ammonia production at 0.5 mM using urea as substrate incubated for 15 mins by indophenol method
Sequence (P07374 whole entry, looked up): as the sequence (P07374 whole entry) above
readout: inhibition
State the value with its unit after it.

If you can, please state the reported inhibition value of CCCCCCCCn1c2ccc(C(C)=O)cc2c2cc(C(=O)/C=C/c3cccc(Br)c3)ccc21 .
10.9%

If you can, please state the reported inhibition value of CCCCCCCCn1c2ccc(C(C)=O)cc2c2cc(C(=O)/C=C/c3cc(OC)c(OC)c(OC)c3)ccc21 .
74.5%

If you can, please state the reported inhibition value of CCCCCCCCn1c2ccc(C(C)=O)cc2c2cc(C(=O)/C=C/c3ccc(OC)cc3)ccc21 .
98.5%

If you can, please state the reported inhibition value of CCCCCCCCn1c2ccc(C(C)=O)cc2c2cc(C(=O)/C=C/c3ccc(N(C)C)cc3)ccc21 .
22.6%

If you can, please state the reported inhibition value of CCCCCCCCn1c2ccc(C(C)=O)cc2c2cc(C(=O)/C=C/c3ccccc3[N+](=O)[O-])ccc21 .
18.6%

If you can, please state the reported inhibition value of CCCCCCCCn1c2ccc(C(C)=O)cc2c2cc(C(=O)/C=C/c3ccccc3)ccc21 .
19.3%

If you can, please state the reported inhibition value of CCCCCCCCn1c2ccc(C(C)=O)cc2c2cc(C(=O)/C=C/c3ccccc3Br)ccc21 .
94.8%

If you can, please state the reported inhibition value of CCCCCCCCn1c2ccc(C(C)=O)cc2c2cc(C(=O)/C=C/c3ccc([N+](=O)[O-])cc3)ccc21 .
29.3%

If you can, please state the reported inhibition value of CCCCCCCCn1c2ccc(C(C)=O)cc2c2cc(C(=O)/C=C/c3cccc([N+](=O)[O-])c3)ccc21 .
94.4%

Cited source: ChEMBL document CHEMBL4665672
